The origin of these recorded values is patent US6812243B2.

Test system: sis-transformed NIH3T3 cells
Test: Colony formation of sis-3T3 cells in soft agar
Assay type: cell-based
Conditions: Mus musculus, read-out: Colony formation (sis-3T3 cells), IC 50
measurement.name: IC50

### Prompt Fill in reported IC50 for this entry: O=C(c1cc2ccccc2[nH]1)c1cc2ccccc2[nH]1 [Example 19, Bisindol-2-ylmethan-1-one]
### Response 3 to 10 µM

----------
Exercise: state measured pIC50 for each of the compounds provided.
Target: EGF receptor tyrosine kinase (Homo sapiens, UniProt P00533)
Construct: tested in intact A431 cells; endogenous in cells
Sequence (P00533 25-1210): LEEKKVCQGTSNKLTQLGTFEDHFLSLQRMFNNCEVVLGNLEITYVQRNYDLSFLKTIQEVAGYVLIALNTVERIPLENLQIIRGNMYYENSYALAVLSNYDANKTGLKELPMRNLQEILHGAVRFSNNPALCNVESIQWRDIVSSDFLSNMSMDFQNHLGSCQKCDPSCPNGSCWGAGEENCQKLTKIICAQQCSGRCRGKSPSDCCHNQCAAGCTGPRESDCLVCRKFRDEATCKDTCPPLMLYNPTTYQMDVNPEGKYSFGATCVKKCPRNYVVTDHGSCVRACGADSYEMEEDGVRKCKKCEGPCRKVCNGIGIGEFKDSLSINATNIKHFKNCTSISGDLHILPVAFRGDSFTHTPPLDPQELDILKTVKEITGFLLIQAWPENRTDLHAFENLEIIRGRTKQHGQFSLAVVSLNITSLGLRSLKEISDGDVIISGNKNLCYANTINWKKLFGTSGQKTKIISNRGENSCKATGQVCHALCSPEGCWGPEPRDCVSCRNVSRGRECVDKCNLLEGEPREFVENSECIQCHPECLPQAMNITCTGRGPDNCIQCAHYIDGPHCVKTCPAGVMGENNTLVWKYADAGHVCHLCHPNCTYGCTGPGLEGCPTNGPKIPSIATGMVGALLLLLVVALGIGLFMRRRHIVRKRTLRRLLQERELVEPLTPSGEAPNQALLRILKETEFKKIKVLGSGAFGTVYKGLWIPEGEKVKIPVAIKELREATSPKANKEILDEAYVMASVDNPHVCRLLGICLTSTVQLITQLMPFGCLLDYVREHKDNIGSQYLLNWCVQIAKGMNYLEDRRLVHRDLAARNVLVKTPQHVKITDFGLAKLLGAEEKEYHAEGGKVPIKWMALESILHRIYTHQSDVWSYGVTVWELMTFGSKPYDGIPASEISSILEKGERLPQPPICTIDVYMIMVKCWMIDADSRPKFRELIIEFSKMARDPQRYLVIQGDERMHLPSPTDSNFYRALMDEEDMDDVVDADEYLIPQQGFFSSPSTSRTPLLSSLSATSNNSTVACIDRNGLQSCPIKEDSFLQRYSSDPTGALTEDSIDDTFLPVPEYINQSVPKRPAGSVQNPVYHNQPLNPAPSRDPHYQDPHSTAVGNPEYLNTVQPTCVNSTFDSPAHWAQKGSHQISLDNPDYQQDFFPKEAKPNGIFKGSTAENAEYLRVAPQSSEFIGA
Experiment: EGFR phosphorylation in intact A 431 cells
Settings: intact A431 cells; read-out: EGFR phosphorylation in vivo (A 431 cells), IC 50
pIC50: −log10 of the molar value.

# return pIC50 for each item in the list
1. O=C(c1cc2ccccc2[nH]1)c1cc2ccccc2[nH]1 [Example 19, Bisindol-2-ylmethan-1-one]
2. COc1ccc2[nH]c(C(=O)c3cc4ccccc4[nH]3)cc2c1 [Example 20]

### Response
1: < 5.00; 2: < 5.00

----------
Please respond with reported melting point for every item in the list.

Use these answered entries as a reference point.
| molecule | result |
| --- | --- |
| CN1C(=O)C(Br)=C(c2c(CCCCCc3[nH]c4ccccc4c3C3=C(Br)C(=O)N(C)C3=O)[nH]c3ccccc23)C1=O [Example 112] | 137 °C (dec.) |
| CN1C(=O)C(Br)=C(c2c(CCc3cc4ccccc4[nH]3)[nH]c3ccccc23)C1=O [Example 91] | 169 °C |
| O=C1C2=C(C(=O)N1COCc1ccccc1)c1c([nH]c3ccccc13)Cc1[nH]c3ccccc3c12 [Example 85] | > 350 °C |
| CCOc1ccc2[nH]c(C(=O)c3cc4ccccc4[nH]3)cc2c1 [Example 44] | 168 to 169 °C |
| O=C(c1cc2ccccc2[nH]1)c1cc2cc(O)ccc2[nH]1 [Example 43] | > 220 °C |

Hi team, please reply with melting point for each item in this list.
1. O=C1NC(=O)C(c2c(CCCCCCCCCCc3[nH]c4ccccc4c3C3=C(Br)C(=O)NC3=O)[nH]c3ccccc23)=C1Br [Example 120]
2. COc1ccc2[nH]c(C(=O)c3cc4cc(OC)ccc4[nH]3)cc2c1 [Example 21, Bis(5-methoxyindol-2-yl)-1-methanone]
3. O=C(c1c[nH]c2ccccc12)c1c[nH]c2ccccc12 [Example 94, Bis(indol-3-yl)methanone]

### Response
1: 164 °C (dec.); 2: 202 to 204 °C; 3: 297 to 299 °C

----------
Tested on: Swiss 3T3 cells
Assay: DNA synthesis in growth factor stimulated Swiss 3T3 cells
Type: cell-based
Details: Swiss-3T3, read-out: DNA synthesis (Swiss 3T3 cells), 10% FCS, IC 50
pIC50: −log10 of the molar value.
measurement.name: pIC50

### Prompt # return recorded pIC50 for input O=C(c1cc2ccccc2[nH]1)c1cc2ccccc2[nH]1
### Response < 4.52

----------
Please provide measured melting point for the entries that follow.

Study these solved cases before continuing.
| compound | melting point |
| --- | --- |
| O=C(c1cc2ccccc2[nH]1)c1cc2cc(OCc3ccccc3)ccc2[nH]1 [Example 42] | 199 to 201 °C |
| CCC(=O)Oc1ccc2[nH]c(C(=O)c3cc4ccccc4[nH]3)cc2c1 [Example 57] | > 230 °C |
| CN1C(=O)C(c2c(CCCCCc3[nH]c4ccccc4c3C3=C(N4CCCCC4)C(=O)N(C)C3=O)[nH]c3ccccc23)=C(N2CCCCC2)C1=O [Example 124] | 262 °C |
| COc1cccc2cc(C(=O)c3cc4ccccc4[nH]3)[nH]c12 [Example 30] | 151 °C |
| COc1ccc2cc(C(=O)c3cc4ccccc4n3S(=O)(=O)c3ccccc3)n(S(=O)(=O)c3ccccc3)c2c1 [Example 31] | 184 to 186 °C |
| CN(C)Cc1c(C(O)c2cc3ccccc3n2S(=O)(=O)c2ccccc2)n(S(=O)(=O)c2ccccc2)c2ccccc12 (stereo not shown) [Example 8] | 116 to 117 °C |

Kindly review the next compound as well.
### Prompt State its melting point: CN(C)CCn1c2c(c3ccccc31)C1=C(C(=O)OC1=O)c1c([nH]c3ccccc13)C2 [Example 87]
### Response > 350 °C

----------
Exercise: for every item that follows, state its recorded melting point.

Some compounds with recorded melting point:
| compound | melting point |
| --- | --- |
| COc1ccc2[nH]c(C(=O)c3cc4ccccc4s3)cc2c1 [Example 28] | 200 °C |
| O=C1NC(=O)C(c2c(CCCCCc3[nH]c4ccccc4c3C3=C(Br)C(=O)NC3=O)[nH]c3ccccc23)=C1Br [Example 114] | > 350 °C (dec.) |
| COc1ccc2cc(C(O)c3cc4ccccc4n3S(=O)(=O)c3ccccc3)n(S(=O)(=O)c3ccccc3)c2c1 (centres unmarked) [Example 11] | 180 °C |

Hi! Can you tell me melting point for each of these compounds?
1. COc1ccc2c(c1)cc(Cc1cc3cc(OC)ccc3n1S(=O)(=O)c1ccccc1)n2S(=O)(=O)c1ccccc1 [Example 71]
2. CN1C(=O)C(Br)=C(c2c(CCCCCc3cc4ccccc4[nH]3)[nH]c3ccccc23)C1=O [Example 93]
3. COc1ccc2c(c1)cc(Cc1cc3ccccc3n1S(=O)(=O)c1ccccc1)n2S(=O)(=O)c1ccccc1 [Example 72]
4. COc1ccc2[nH]c(C(=O)c3cc4ccccc4[nH]3)cc2c1 [Example 75]

### Response
["159 to 160 °C", "125 °C (dec.)", "98 to 100 °C", "112 °C"]

### Prompt Return the recorded melting point value; entry: CN1C(=O)C2=C(C1=O)c1c([nH]c3ccccc13)CCc1[nH]c3ccccc3c12 [Example 84]
### Response > 350 °C
